# Test system: HCT-15 colon
# assay-method-text: NCI tumour cell line growth inhibition, 48 h
assay-endpoint: TGI (µM)

>>> result_value("CCOC(=O)c1[nH]c2cccc3c2c1CC(Br)C3=O (centres undefined)")
18.8
>>> result_value("N#Cc1c(Cl)cccc1Oc1ccc(S(=O)(=O)/N=C(\\NO)Nc2ccc(Cl)cc2)cc1")
34.1
>>> result_value("COc1ccc(/C=C/C(=O)/C=C(/C=C/c2ccc(OC)c(OC)c2)OB(F)F)cc1OC")
1.12
>>> result_value("O=[N+]([O-])/C(C(Cl)=C(Cl)Cl)=C(\\Nc1cccc2cccnc12)Sc1ccccc1")
34.4

* * *

# Test system: OVCAR-5 ovarian
# assay-method-text: NCI tumour cell line growth inhibition, 48 h
Attribute: TGI
assay-endpoint: TGI (µM)

>>> result_value("COc1ccc2c(c1OC)C(Br)CCC(Br)(Br)C2=O (stereo not given)")
31.8
>>> result_value("COc1ccc(C(=O)c2cc(OC)c(OC)c(OC)c2)cc1/C=C/C(=O)c1ccc(O)cc1")
25.1
>>> result_value("C=C1C(=O)OC2C1C(OC(=O)/C(C)=C/C)CC(O)(CCl)C1C(OC(C)=O)C=C(C)C21O (stereo not given)")
31.9
>>> result_value("CCN(Cc1ccc(F)cc1F)c1ccc(CO)c(Cl)c1")
0.317
>>> result_value("Cc1ccc2c(/C=C/C(=O)c3cc(CN4CCOCC4)c(O)c4nc(C)ccc34)cc(CN3CCOCC3)c(O)c2n1")
13.1

* * *

# Test system: SNB-19 CNS
# assay-method-text: NCI tumour cell line growth inhibition, 48 h; in the data active = GI50 below about 0.43 µM; inactive = the rest
Outcome codes: T = active, F = inactive

>>> cat("C=C1C(=O)O[C@H]2[C@H]1CC/C(COC(=O)/C=C/c1cccnc1)=C\\CC[C@@]1(C)O[C@@H]21")
"F"
>>> cat("O=C(CCl)Nc1ccccc1SCc1cc(Cl)cc2c1OCOC2")
"F"
>>> cat("COC(=O)c1ccc(-c2nc3cc(F)c(F)cc3nc2C#N)cc1")
"F"
>>> cat("N#Cc1c2ccccc2c2nnc3cc(C(F)(F)F)ccc3n12")
"F"
>>> cat("NCCCn1c2c(c3ccccc3c1=O)C(=O)c1cc3c(cc1-2)OCO3")
"T"
>>> cat("CN(C)CCCNC(=O)c1cc(NC(=O)c2cc(NC(=O)CCCN3c4ccccc4C=Cc4ccccc43)cn2C)cn1C")
"F"

* * *

# Tested on: MCF7 breast
# assay-method-text: NCI tumour cell line growth inhibition, 48 h
assay-endpoint: TGI

>>> result_value("NS(=O)(=O)c1ccc(NC(=S)/N=C/c2c(O)c3ccccc3[nH]c2=O)cc1")
"> 100 µM"
>>> result_value("COP(=N[Si](C)(C)C)(OC)OC")
"> 100 µM"
>>> result_value("CCOC(=O)NC(OCCN(C)C)(C(F)(F)F)C(F)(F)F")
"> 100 µM"
>>> result_value("[N-]=[N+]=NC1(c2ccccc2)C(=O)c2cccc3c4ccccc4n(c23)C1=O (centres undefined)")
"> 100 µM"
>>> result_value("CCOC(=O)Nn1cnnc1Cc1ccccc1")
"> 100 µM"
>>> result_value("N#Cc1c2ccccc2c2nnc3cc(C(F)(F)F)ccc3n12")
"80.9 µM"
>>> result_value("CC(C)(C)[Si](C)(C)OC1[C@@H](O[Si](C)(C)C(C)(C)C)[C@@H](CNC(=O)NC(=O)NC(=O)CI)O[C@H]1n1cnc2c(NC(=O)Nc3ccccc3)ncnc21 (some centres undefined)")
"17.4 µM"
>>> result_value("CC(C)C(=O)CC(Sc1ccc(N)cc1)c1ccccc1 (centres undefined)")
"47.1 µM"
>>> result_value("CN(C)CCCNC(=O)c1cc(NC(=O)c2cc(NC(=O)CCCN3c4ccccc4C=Cc4ccccc43)cn2C)cn1C")
"> 100 µM"
>>> result_value("C=C[C@@]1(C)CC(=O)[C@]2(O)[C@@]3(C)[C@@H](OC(C)=O)CCC(C)(C)[C@@H]3[C@H](O)[C@H](OC(C)=O)[C@@]2(C)O1")
"> 100 µM"
>>> result_value("Nc1nc([O-])c([I+]c2ccccc2)c(=O)[nH]1")
"> 100 µM"
>>> result_value("Cc1cccc2c1CC(C1OC(=O)c3c(C)cccc31)C2=O (centres undefined)")
"> 100 µM"
>>> result_value("CCC(C)C1=C(O)[N+]2([O-])Oc3ccc(-c4c(O)c(O)c(-c5ccc(O)cc5)c(OC(C)=O)c4OC(C)=O)cc3OC2(C(C)CC)C(=O)N1O (centres undefined)")
"> 50 µM"
>>> result_value("COc1ccc(-c2cc(-c3ccccc3)c3c(n2)-c2ccccc2NC(=O)C3)cc1")
"> 100 µM"
>>> result_value("Nc1ccc2c(c1)N(C(=O)CCCC(=O)N1CC(CCl)c3ccc(N)cc31)CC2CCl (centres undefined)")
"12.9 µM"
>>> result_value("O=C(CSc1nc2ccc([N+](=O)[O-])cc2[nH]1)Nc1cccc(C(F)(F)F)c1")
"9.44 µM"
>>> result_value("CC(C)/C(Cl)=N/OC(NC(=O)Nc1ccc(Cl)c(Cl)c1)(C(F)(F)F)C(F)(F)F")
"> 50.2 µM"
>>> result_value("COC(=O)/C=C1\\SC(=Nc2ccc(C(F)(F)F)cc2)N(CCc2c[nH]c3ccccc23)C1=O")
"4.53 µM"
>>> result_value("Cn1cc(-c2nc(-c3c[nH]c4ncccc34)cs2)c2cc(Cl)ccc21")
"> 100 µM"

* * *

# Test system: NCI-H23 lung
# assay-method-text: NCI tumour cell line growth inhibition, 48 h
If the reported TGI equals or exceeds 40 µM, assign yes. If not, assign no.

>>> cat("O=S(=O)(O)c1cc(S(=O)(=O)O)c2c(N=Nc3ccccc3)c(O)ccc2c1")
"yes"
>>> cat("CC(C)/C(Cl)=N/OC(NC(=O)Nc1ccc(Cl)c(Cl)c1)(C(F)(F)F)C(F)(F)F")
"no"
>>> cat("COc1cccc2c(Nc3ccc(C(=O)NCCNCCO)cc3)cc(-c3ccccc3)nc12")
"yes"
>>> cat("CC1=NN(c2cccc(Cl)c2)C(=N/c2nc3ccccc3s2)/C1=C\\c1ccccc1O")
"yes"
>>> cat("COc1ccc(/C=C/C(=N/NC(=O)N/N=C(/C=C/c2ccc(OC)cc2)C(C)C)C(C)C)cc1")
"yes"
>>> cat("COc1ccc(-c2nc3sccn3c2/C=C/C(=O)c2cc(OC)c(OC)c(OC)c2)cc1OC")
"no"
>>> cat("COC1C(=[N+]=[N-])C(=O)NC(=O)N1C1OC(COC(c2ccccc2)(c2ccccc2)c2ccccc2)C(O)C1O (centres undefined)")
"no"
>>> cat("CC(C)(C)c1ccc(Oc2ccc(C#N)c(C#N)c2)c(C(C)(C)C)c1")
"yes"
>>> cat("N#CCN(Cc1ccccc1)[C@H]1CCC[C@]1(O)/C=C/c1ccc2c(c1)OCO2")
"yes"

* * *

# Tested on: MDA-MB-435
# assay-method-text: NCI tumour cell line growth inhibition, 48 h
Attribute: TGI
assay-endpoint: TGI

>>> result_value("O=c1cnn(C/C=C/CP(=O)(O)O)c(=O)[nH]1")
"> 100 µM"
>>> result_value("O=C1CCCSCCCC(=O)CCCSCCC1")
"> 100 µM"
>>> result_value("Cc1cccc2c1CC(C1OC(=O)c3c(C)cccc31)C2=O (stereo not given)")
"> 100 µM"
>>> result_value("Cc1ccc(/C(O)=C/c2nc3ccccc3nc2NC23CC4CC(CC(C4)C2)C3)cc1")
"> 10 µM"
>>> result_value("O=S(=O)(O)c1cc(S(=O)(=O)O)c2c(N=Nc3ccccc3)c(O)ccc2c1")
"> 100 µM"
>>> result_value("O=C(c1c(F)c(F)c(F)c(F)c1F)n1c(=O)[nH]c2ccccc21")
"21.9 µM"
>>> result_value("COc1ccc(-c2c(C#N)c(N)n(C3OCC(O)C(O)C3O)c(=S)c2C#N)cc1 (stereo not given)")
"> 100 µM"
>>> result_value("CC(=O)C(C(=N)C#N)C(=O)Nc1ccccc1 (stereo not given)")
"> 100 µM"
>>> result_value("COc1cc(/C=C2\\N=C(c3ccccc3)N(c3ccc(S(=O)(=O)Nc4nccs4)cc3)C2=O)ccc1O")
"> 100 µM"
>>> result_value("NCCCn1c2c(c3ccccc3c1=O)C(=O)c1cc3c(cc1-2)OCO3")
"8.1 µM"
>>> result_value("CC1CC/C(=C\\c2ccc(Cl)cc2)C(=O)/C1=C\\c1ccc(Cl)cc1 (stereo not given)")
"> 100 µM"
>>> result_value("COC(=O)CC(SCCO)SCCO")
"> 100 µM"
>>> result_value("CC(C)C(=O)CC(Sc1ccc(N)cc1)c1ccccc1 (stereo not given)")
"39.8 µM"
>>> result_value("COc1cc2c3c(n(CCCO)c(=O)c2cc1OC)-c1cc2c(cc1C3=O)OCO2")
"> 100 µM"
>>> result_value("O=c1ccc(-c2ccc(-n3ccnc3)cc2)nn1CCO")
"> 100 µM"
>>> result_value("CCOC(=O)c1sc2ncn(Cc3cccc(Cl)c3)c(=O)c2c1C")
"26.9 µM"
>>> result_value("N#Cc1c2ccccc2c2nnc3cc(C(F)(F)F)ccc3n12")
"> 100 µM"
>>> result_value("O=c1[nH]nc(Cc2ccccc2)n1N=C1CCCCC1")
"> 100 µM"
>>> result_value("CN(C)Cc1cc(N=Nc2c(Cl)cccc2Cl)ccc1O")
"> 100 µM"
>>> result_value("Cc1c2ncccc2c(C)c2c1[nH]c1ccc(O)cc12")
"20.9 µM"
>>> result_value("CCOC(=O)c1[nH]c2cccc3c2c1CC(Br)C3=O (stereo not given)")
"25.2 µM"
>>> result_value("C=C1C(=O)OC2C1C(OC(=O)/C(C)=C/C)CC(O)(CCl)C1C(OC(C)=O)C=C(C)C21O (stereo not given)")
"> 51.2 µM"
>>> result_value("[N-]=[N+]=NC1(c2ccccc2)C(=O)c2cccc3c4ccccc4n(c23)C1=O (stereo not given)")
"92.8 µM"
>>> result_value("Nc1nc([O-])c([I+]c2ccccc2)c(=O)[nH]1")
"> 100 µM"
>>> result_value("COc1ccc(/C=C/C(=N/NC(=O)N/N=C(/C=C/c2ccc(OC)cc2)C(C)C)C(C)C)cc1")
"> 100 µM"
>>> result_value("Cc1nc2ccc(S(=O)(=O)Nc3ccccn3)cc2c(=O)n1NS(=O)(=O)c1ccccn1")
"> 100 µM"
>>> result_value("COc1ccc(-n2c(-c3ccc(NC(=O)CCCl)cc3)nnc2-c2cc(OC)c(OC)c(OC)c2)cc1")
"> 14.3 µM"
>>> result_value("Cc1c(C(=O)N/N=C/c2ccc(O)cc2)nnn1-c1ccnc2c(C(F)(F)F)cccc12")
"> 100 µM"
>>> result_value("Cc1nc(C)c(N2CCN(C(=O)NC(CCC(=O)O)C(=O)O)CC2)c(=O)[nH]1 (stereo not given)")
"> 100 µM"
>>> result_value("CCOC(=O)Nn1cnnc1Cc1ccccc1")
"> 100 µM"
